# Procedure text: Open-label dose-ranging study: pharmacokinetics, safety and tolerability of oral doses
# Type: in vivo, human
# Assay setup: human, in vivo, po, 700 mg, Tmax
Assay readout: Tmax (h)
Number in h, nothing else.

(Q) Which Tmax is listed for "Nc1ccn([C@@H]2C(F)=C(CO)[C@@H](O)[C@H]2O)c(=O)n1" ?
(A) 3

* * *

# Procedure text: Open-label dose-ranging study: pharmacokinetics, safety and tolerability of oral doses
# Type: in vivo, human
# Assay setup: human, in vivo, po, 2000 mg, Tmax
Assay readout: Tmax (h)
Number in h, nothing else.

(Q) Which Tmax is listed for "Nc1ccn([C@@H]2C(F)=C(CO)[C@@H](O)[C@H]2O)c(=O)n1" ?
(A) 3

* * *

# Procedure text: Open-label dose-ranging study: pharmacokinetics, safety and tolerability of oral doses
# Format: in vivo, human
# Assay setup: human, in vivo, po, 500 mg, Cmax
Assay readout: Cmax (ng/mL)
Number in ng/mL, nothing else.

(Q) Which Cmax is listed for Nc1ccn([C@@H]2C(F)=C(CO)[C@@H](O)[C@H]2O)c(=O)n1 [RX-3117] ?
(A) 1100

Value source: patent US10278971B2
